So I've got a bunch of binders here, and I need their ELISA (OD 450) at 300 nM values.
- ASSAYED TARGET: soluble TSHR protein (ELISA coat) (human, UniProt P16473 22-260, limits assumed)
- RUN DESCRIPTION: ELISA, plate coated with soluble TSHR, antibody at 300 nM, anti-human IgG Fc-HRP;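 also: TSHR coated at 2 µg/ml, bound antibody revealed by goat anti-human IgG Fc HRP, color developed with TMB and stopped with H2SO4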
One number for each entry, in OD 450.

Field: example entries. Status: answers known.
| BINDER | VALUE |
| --- | --- |
| TSHB-15 (antibody, V domains shown) VH: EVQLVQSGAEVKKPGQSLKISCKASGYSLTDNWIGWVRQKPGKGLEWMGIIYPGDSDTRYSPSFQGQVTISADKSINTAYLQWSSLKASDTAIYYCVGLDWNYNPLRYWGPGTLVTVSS VL: QSVLTQPPSVSAAPGQKVTISCSGSSSDIGSNYVSWYQQLPGTAPKLLIYDNNKRPSGIPDRFSGSKSGTSATLGITGLQTGDEADYYCGTWDSRFGIAVFGGGTQLTVL | 0.569 |
| TSHB-9 (antibody, V domains shown) VH: EVQLVQSGAEVKKPGESLKISCKASGYSLTDNWTGWVRQKPGKGLEWMGIIYPGDSDTRYSPSFQGQVTISADKSISTAYLQWSSLKASDTAIYYCVGLDWNYNPLRYWGQGTLVTVSS VL: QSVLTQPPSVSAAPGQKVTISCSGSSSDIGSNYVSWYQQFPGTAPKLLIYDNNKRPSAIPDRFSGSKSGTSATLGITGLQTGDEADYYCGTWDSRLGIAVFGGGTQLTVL | 0.478 |

# next binder below
Inquiry: Fill in the blank: the reported ELISA (OD 450) at 300 nM of TSHB-11 (antibody, V domains shown) VH: EVQLVQSGAEVKKPGESLKISCKASGYSLTDNWIGWVRQKPGKGLEWMGIIYPGDSDTRYSPSFQGQVTISADKSISTAYLQWSSLKASDTAIYYCVGTDWNYNPLRYWGQGTLVTVSS VL: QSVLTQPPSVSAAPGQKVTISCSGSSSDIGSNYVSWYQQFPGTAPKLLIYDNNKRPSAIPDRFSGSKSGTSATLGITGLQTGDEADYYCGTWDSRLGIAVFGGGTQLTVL is ____.
Reply text: 0.289

These measurements were taken from patent US20250388688A1.
